- Tested on: H1 or H9 human embryonic stem cells
- Method: Activin A bioassay: differentiation of human embryonic stem cells to definitive endoderm, cell number and SOX17 intensity by high content analysis (96-well, four days)
- Type: cell-based
- Condition context: supernatant concentration 1x, assay dilution 1:20; control = R&D Sys Activin A 100 ng/ml on same plate
- Description: Activin A is an important mediator of differentiation in a broad range of cell types. […] A bioassay that measures this differentiation in human embryonic stem cells was adapted in miniaturized format to 96-well plates for screening purposes. […] Imaging was performed using an IN Cell Analyzer 1000 (GE Healthcare) utilizing the 51008bs dichroic for cells stained with Hoechst 33342 and Alexa Fluor 488. […] Averages and standard deviations were calculated for each replicate data set. […]
Endpoint name: Sox 17 Intensity % of control (%)
Respond numerically; units are % and should not be typed.

Exercise: For the molecule ACTN90: activin A variant peptide, SEQ ID 91 (protein) GLECDGKVNICCKKQSFGQTKDIGWNDWIIAPSGYHGGSCSGECPSHIAGTSGSSLSFHSTVINHYRMRGHSPFANLKSCCSPTKLRPMSMLYYDDGQNIIKKDIQNMKVEECGCT , report Sox 17 Intensity % of control.
Solution: 5.9
